- tested_target: Dickkopf-related protein 1 (Homo sapiens)
- assay_notes: DKK1 binders on small-molecule microarrays, primary screen, biochemical, small-molecule microarray, 635 nm fluorescence scan (AID 1106);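 note: score merges emission near 667 nm with signal to noise over three replicate slides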
- experimental_context: DKK1 binding, higher = more signal
result_type: composite z-score
Answers are plain numbers.

For the 7 molecules below, give their composite z-score values.
1. CO[C@@H]1C=CCC(=O)N[C@@H](C)C(=O)OC[C@@H](OC)[C@H](C)CCCC(=O)OC[C@H]1C
2. CCCCC#C[C@@H]1C=C[C@H](OC(C)=O)[C@@H](COC(C)=O)O1
3. COC(=O)CC=C[C@@H](C)[C@@H](C=NOCC[C@@H]1C=C[C@H](OC(C)=O)[C@@H](COC(C)=O)O1)NS(=O)(=O)c1ccc(C)cc1
4. CCOC(=O)[C@H](CC(C)C)NC(=O)CCC1CC(OC(=O)NCCc2ccc(F)cc2)CC2(CCCC(COC(=O)NCC(c3ccccc3)c3ccccc3)O2)O1 (some centres not stated)
5. COC(=O)[C@@H]1CC[C@H](C)[C@@H](c2ccc(C)cc2)N1C(=O)c1ccc(C=NOCC[C@@H]2C=C[C@H](OC(C)=O)[C@@H](COC(C)=O)O2)cc1
6. COc1ccc(O[C@H]2C=C[C@@H](c3ccccc3)O[C@@H]2COC(=O)CCC(C)=NOC(C)CN2CCCc3nc(C)c(C)cc32)cc1 (some centres not stated)
7. COc1cc(O)c(C(=O)C=Cc2ccc3c(c2)OCO3)c(OC)c1

**A:**
1: 1.64; 2: 0.124; 3: 0.316; 4: 0.697; 5: 0.948; 6: 0.524; 7: 0.115

====

- tested_target: Albumin (Bos taurus)
- assay_notes: bovine serum albumin binders on microarray, profiling panel, artefact control for SMM control protein annotation, biochemical, small-molecule microarray, Alexa647 label, 635/667 nm fluorescence (AID 1118);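 note: score merges 667 nm emission intensity and signal-to-noise per printed compound spot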
- experimental_context: BSA-A647 binding, fluorescence 635 nm, higher = more signal
Assign Met whenever composite z-score does not fall below -0.6; assign Not met whenever it does.

Reference set (5 entries):
Cc1ccc(S(=O)(=O)n2c3ccccc3c3nnc(C(=O)c4ccccc4)nc32)cc1: Met
C#CCCCON=C1C[C@@H](O)[C@@H](O)[C@@H]2[C@@H]3C(=O)N(Cc4ccccc4)C(=O)[C@@H]3CC[C@@H]12: Met
CCOC(=O)[C@H](CC(C)C)NC(=O)CCC1CC(OC(=O)NCc2cccc3ccccc23)CC2(CCCC(COC(=O)NCc3cccc(C(F)(F)F)c3)O2)O1 (stereo partly drawn): Met
CC(CCN1CCCCc2nc(C)c(C)cc21)=NOC[C@@H](O)COCc1ccco1: Not met
COC(=O)CC=C[C@@H](C)[C@@H](C=NOC[C@H]1O[C@H](c2ccccc2)C=C[C@@H]1Oc1ccc(OC)cc1)NS(=O)(=O)c1ccc(C)cc1: Met

**Q:** Quick check, composite z-score >= -0.6? `CC(C)(C)N1C(=O)[C@H]2[C@H]3[C@H](O)C=CC(=O)[C@@H]3CC[C@H]2C1=O`
**A:** Met

**Q:** Record: `CO[C@H]1COC(=O)CC=C[C@H](C)[C@@H](OC)COC(=O)[C@H](C)COC(=O)CC=C[C@@H]1C`
**A:** Not met

**Q:** Try the molecule `CO[C@H]1COC(=O)[C@@H](C)COC(=O)[C@@H](OCc2ccccc2)C=C[C@@H]1C`
**A:** Not met

====

- tested_target: Calmodulin-1 (Homo sapiens)
- assay_notes: CALM1 binders on microarrays, EGTA buffer, profiling panel, biochemical, small-molecule microarray, Cy5-labelled CALM1 (AID 1111);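 note: labelled calmodulin applied in Tris saline Tween buffer holding calcium plus EGTA and DTT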
- experimental_context: Cy5-CALM1 binding fluorescence, higher = more signal
result_type: composite z-score

Some compounds with recorded composite z-score:
C#CCCCON=C1C[C@@H](O)[C@@H](O)[C@@H]2[C@@H]3C(=O)N(CC)C(=O)[C@@H]3CC[C@@H]12: -0.4
COc1ccc(O[C@H]2C=C[C@@H](c3ccccc3)O[C@@H]2CON=C(C)C)cc1: 0.0047
COc1cccc([C@@H]2Oc3ccc(OC)cc3C(=O)[C@H]2O)c1: 0.111

Batch request: composite z-score per item, same order as input.
1. CCCNC(=O)OC[C@H]1O[C@H](CCON=Cc2ccc(C(=O)N3[C@H](c4ccc(C)cc4)[C@@H](C)CC[C@H]3C(=O)OC)cc2)C=C[C@@H]1Oc1ccc(OC)cc1
2. CC(C)=NO[C@H](C)c1cn([C@H](CO)Cc2ccccc2)nn1
3. C[C@@H](c1ccccc1)N1C(=O)[C@H]2[C@H]3[C@H](O)[C@H](O)CC(=NO[C@@H]4O[C@H](CO)[C@@H](O)[C@H](O)[C@H]4O)[C@H]3CC[C@H]2C1=O
4. CCCCC#C[C@@H]1C=C[C@H](Oc2cc(OC)c(OC)c(OC)c2)[C@@H](COC(=O)OCC)O1

**A:**
0.263
0.0595
-0.222
-0.659

Provide the reported composite z-score of each entry below, same order.
1. CCOC(=O)[C@H](CC(C)C)NC(=O)CCC1CC(OC(=O)NCc2ccc3c(c2)OCO3)CC2(CCCC(COC(=O)NCCCN3CCCC3=O)O2)O1 (stereo not given in full)
2. CCOC(=O)[C@H](Cc1ccccc1)NC(=O)CCC1CC(OC(=O)NCCc2ccc(F)cc2)CC2(CCCC(COC(=O)NCC3CCCCC3)O2)O1 (stereo not given in full)
3. COC(=O)CC=C[C@@H](C)[C@@H](C=NOC(C)CN1CCCc2nc(C)c(C)cc21)OC (stereo not given in full)

**A:**
1. 0.542
2. 0.325
3. 0.539

Please give composite z-score, item by item, for the list that follows.
1. C=CC1=C[C@H](O)[C@@H]2O[C@@H]2C12OCCCO2
2. O=C(NN=C1C[C@@H](O)[C@@H](O)[C@@H]2[C@@H]3C(=O)N(C4CCCCC4)C(=O)[C@@H]3CC[C@@H]12)OCc1ccccc1
3. C#CCCCON=C1[C@H]2CCn3c(=O)n(C)c(=O)n3[C@H]2[C@H](O)[C@@H]2O[C@H]12
4. CC(C)=CCCC(C)=CCON=C1C[C@@H](O)[C@@H](O)[C@@H]2[C@@H]3C(=O)N(C[C@@H]4CCCO4)C(=O)[C@@H]3CC[C@H]12
5. CC(=O)OC[C@H]1O[C@@H](ON=C(C)CCN2CCCc3nc(C)c(C)cc32)[C@H](OC(C)=O)[C@@H](OC(C)=O)[C@@H]1OC(C)=O

**A:**
[-0.396, -0.367, -0.266, 0.0209, 0.113]

====

- tested_target: Fibroblast growth factor 2 (Homo sapiens)
- assay_notes: FGF2 binders on small-molecule microarrays, primary screen, biochemical, small-molecule microarray, 635/667 nm fluorescence (AID 1133)
- experimental_context: small-molecule microarray binding, FGF2, fluorescence 635/667; higher = more signal
result_type: composite z-score
One number for each entry.

Here is how some compounds turned out for composite z-score.
CC(C)=CCCC(C)=CCON=C1C[C@@H](O)[C@@H](O)[C@@H]2[C@@H]3C(=O)N(C(C)(C)C)C(=O)[C@@H]3CC[C@H]12: 0.248
CCOC(=O)NN=C1C[C@@H](O)[C@@H](O)[C@@H]2[C@@H]3C(=O)N(c4ccc(F)cc4F)C(=O)[C@@H]3CC[C@@H]12: 0.187
C#CCCCON=C1C[C@@H](O)[C@@H](O)[C@@H]2[C@@H]3C(=O)N(CCC(=O)OCC)C(=O)[C@@H]3CC[C@H]12: 0.613
CO[C@@H]1COC(=O)[C@@H]2CCCN2C(=O)[C@@H](C)COC(=O)CC=C[C@H]1C: 1.51
COc1ccc(O[C@@H]2[C@H](O)CO[C@H]2C=Cc2ccccc2)cc1: 0.117
COC(=O)CC=C[C@@H](C)[C@@H](C=NOC[C@@H](O)[C@H]1O[C@@H]2OC(C)(C)O[C@@H]2[C@H]1O)NS(=O)(=O)c1ccc(C)cc1: 0.276
CCOC(=O)[C@H](CC(C)C)NC(=O)CCC1CC(OC(=O)NCc2cccc3ccccc23)CC2(CCCC(COC(=O)NCC3CCCCC3)O2)O1 (some centres undefined): 0.594
CCOC(=O)NN=C1C[C@@H](O)[C@@H](O)[C@@H]2[C@@H]3C(=O)N(c4cccc(Oc5ccccc5)c4)C(=O)[C@@H]3CC[C@H]12: 0.374

Please give composite z-score, item by item, for the list that follows.
1. Cn1c(=O)n2n(c1=O)[C@H]1[C@H](O)[C@@H]3O[C@@H]3C(=NOCc3ccccc3)[C@H]1CC2
2. COc1ccc(O[C@H]2C=C[C@@H](c3ccccc3)O[C@@H]2COC(=O)CCC(C)=NOC[C@@H](O)[C@H]2O[C@@H]3OC(C)(C)O[C@@H]3[C@H]2O)cc1
3. CC[C@@H](c1ccccc1)n1c(=O)n2n(c1=O)[C@H]1[C@H](O)[C@@H]3O[C@@H]3C(=NOC[C@@H](O)COCc3ccco3)[C@H]1CC2
4. O=C1[C@H]2[C@H]3[C@H](O)[C@H](O)CC(=NOC[C@@H](O)COCc4ccco4)[C@H]3CC[C@H]2C(=O)N1c1ccc(F)cc1F
5. CC(C)CON=C1C[C@@H](O)[C@@H](O)[C@@H]2[C@@H]3C(=O)N(C4CCCCC4)C(=O)[C@@H]3CC[C@H]12
6. CO[C@H]1COC(=O)CCC[C@@H](C)[C@H](OC)COC(=O)[C@@H]2CCCN2C(=O)CC=C[C@@H]1C

**A:**
1. -0.478
2. 0.439
3. 0.167
4. -1.01
5. 0.781
6. 1.18

For each listed entry, give its composite z-score.
1. CC(=O)Nc1ccc([C@@H]2N[C@H](C(=O)O)CC[C@H]2C)cc1
2. O=C1[C@H]2[C@H]3[C@H](O)[C@H](O)CC(=NOCc4ccccc4)[C@@H]3CC[C@H]2C(=O)N1C[C@@H]1CCCO1
3. CC(C)=CCCC(C)=CCON=C1C[C@@H](O)[C@@H](O)[C@@H]2[C@@H]3C(=O)N(C(C)(C)C)C(=O)[C@@H]3CC[C@@H]12

**A:**
1. 0.284
2. 0.0592
3. 0.247

Please state composite z-score for every compound in the list that follows.
1. CC(C)=NOC[C@@H](C)[C@H](OCc1ccccc1)C(C)C
2. COC(=O)[C@@H]1CC[C@H](C)[C@@H](c2ccc(C)cc2)N1C(=O)c1ccc(C=NOC[C@@H](C)[C@H](OCc2ccccc2)C(C)C)cc1
3. Cc1cc2c(nc1C)CCCCN2CC(C)ON=C1[C@H]2CCn3c(=O)n(-c4ccccc4)c(=O)n3[C@H]2[C@H](O)[C@@H]2O[C@H]12 (some centres undefined)
4. O=C1C[C@@H](O)[C@@H](O)[C@@H]2[C@@H]3C(=O)N(C[C@@H]4CCCO4)C(=O)[C@@H]3CC[C@H]12

**A:**
1. -0.229
2. 0.698
3. 0.875
4. 0.538

Provide reported composite z-score for each item, in the same order as listed.
1. CCOC(=O)[C@H](Cc1ccccc1)NC(=O)CCC1CC(OC(=O)NCCc2ccc(F)cc2)CC2(CCCC(COC(=O)NCCOC)O2)O1 (some centres undefined)
2. C#CCCCON=C1C[C@@H](O)[C@@H](O)[C@@H]2[C@@H]3C(=O)N(C(C)(C)C)C(=O)[C@@H]3CC[C@H]12
3. O=C1C[C@@H](O)[C@@H](O)[C@@H]2[C@@H]3C(=O)N(Cc4ccccc4)C(=O)[C@@H]3CC[C@@H]12
4. Cc1ccc(S(=O)(=O)n2c3ccccc3c3nnc(C(=O)c4ccccc4)nc32)cc1
5. CCOC(=O)NN=C1C[C@@H](O)[C@@H](O)[C@@H]2[C@@H]3C(=O)N(Cc4ccccc4)C(=O)[C@@H]3CC[C@H]12

**A:**
1: 0.557; 2: -0.127; 3: 0.895; 4: 0.978; 5: -0.227

Parameters: items (list). Returns: composite z-score for each item.
1. CC(CCN1CCCCc2nc(C)c(C)cc21)=NO[C@@H](C)c1cn([C@H](CO)Cc2ccccc2)nn1
2. CCN1C(=O)[C@H]2[C@H]3[C@H](O)[C@H](O)CC(=NO[C@@H](C)c4cn([C@H](CO)Cc5ccccc5)nn4)[C@@H]3CC[C@H]2C1=O
3. O=C(NN=C1C[C@@H](O)[C@@H](O)[C@@H]2[C@@H]3C(=O)N(C[C@@H]4CCCO4)C(=O)[C@@H]3CC[C@@H]12)OCc1ccccc1

**A:**
[0.545, 0.894, 0.23]
